Assay: NCI Yeast Anticancer Drug Screen. Data for the cln2 rad14 strain (AID 165);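 further: 0% = growth equal to vehicle treated cultures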
Settings: S. cerevisiae cln2 rad14 strain, at 5.0 µM (retest, dose inferred, filed as 0.5)
This is part of a sample that, as a whole, favours compounds with a hit. Of some 79,000 tested, about 15% had one in any assay. Calls of active or inactive are those of the source. No stated cut-off is given here; in the data, active means growth inhibition above about 70%; inactive means the rest.
Labels: 1 = active, 0 = inactive

| compound | label |
| --- | --- |
| CC(C)(C)c1ccc(C(=O)n2c(=S)oc3ccc(Cl)cc32)cc1 | 0 |
| CC(CCCOC(c1ccccc1)(c1ccccc1)c1ccccc1)OC(=O)Nc1ccccc1 (stereo unspecified) | 1 |
| O=C(CSSCC(=O)Nc1ccccc1)Nc1ccccc1 | 0 |
| CC(C)(C)c1ccc(O)c(O)c1 | 0 |
| CCCCN(CC(O)c1ccc(Cl)cc1)c1ccccc1 (stereo unspecified) | 0 |
| C/C=C(\C)CC/C=C/CO[Si](C)(C)C(C)(C)C | 0 |
| COc1ccc2c(c1)C(Br)CCC(Br)C2=O (stereo unspecified) | 0 |
| COc1ccc(C2CC(c3sc(Nc4ccc(C)cc4)nc3C)=NN2)cc1 (stereo unspecified) | 0 |
| Brc1ccc(N2COc3ccc4ccccc4c3C2)cc1 | 0 |
| O=C(Oc1c([N+](=O)[O-])cc(-c2ccc([N+](=O)[O-])cc2)cc1[N+](=O)[O-])c1ccccc1 | 0 |
| CCCCN(CCCC)c1ccc2c(c1)C(O)c1ccccc1-2 (stereo unspecified) | 0 |
